- System: Escherichia coli
- ASSAY_REMARKS: Antimicrobial activity against extended spectrum beta-lactamase producing Escherichia coli 2269
- Type: functional

MOLECULE	MIC
COc1ccc2oc3c(O)c4c(c(O)c3c(=O)c2c1O)-c1c(cc2c(c1O)C(=O)N1C(C)(C2)OC(=O)C1(C)CO)CC4 (stereo not given)	> 32 µg/mL
COc1ccc2oc3c(c(=O)c2c1O)C(=O)c1c(ccc2cc4c(c(O)c12)C(=O)N1C(C)(C4)OC(=O)C1(C)CO)C3=O (stereo not given)	> 64 µg/mL
C[C@@H](O)[C@H]1C(=O)N2C(C(=O)O)=C(S[C@@H]3CN[C@H](C(=O)N(C)C)C3)[C@H](C)[C@H]12	0.03 µg/mL
CC(=O)NC[C@H]1CN(c2ccc(N3CCOCC3)c(F)c2)C(=O)O1	> 64 µg/mL
CCCCCCCCCC(=O)N[C@@H](Cc1c[nH]c2ccccc12)C(=O)N[C@H](CC(N)=O)C(=O)N[C@@H](CC(=O)O)C(=O)N[C@@H]1C(=O)NCC(=O)N[C@@H](CCCN)C(=O)N[C@@H](CC(=O)O)C(=O)N[C@H](C)C(=O)N[C@@H](CC(=O)O)C(=O)NCC(=O)N[C@H](CO)C(=O)N[C@@H]([C@H](C)CC(=O)O)C(=O)N[C@@H](CC(=O)c2ccccc2N)C(=O)O[C@@H]1C	> 64 µg/mL

---

- Tested on: Haemophilus influenzae
- ASSAY_REMARKS: Antimicrobial activity against ampicillin-resistant Haemophilus influenzae 1742
- Format: functional
READOUT_NAME: MIC (µg/mL)

COMPOUND	SYSTEM	READOUT_NAME	ASSAY_RESULT
C[C@@H](O)[C@H]1C(=O)N2C(C(=O)O)=C(S[C@@H]3CN[C@H](C(=O)N(C)C)C3)[C@H](C)[C@H]12	Haemophilus influenzae	MIC	0.06
COc1ccc2oc3c(c(=O)c2c1O)C(=O)c1c(ccc2cc4c(c(O)c12)C(=O)N1C(C)(C4)OC(=O)C1(C)CO)C3=O (stereo not given)	Haemophilus influenzae	MIC	1
CC(=O)NC[C@H]1CN(c2ccc(N3CCOCC3)c(F)c2)C(=O)O1	Haemophilus influenzae	MIC	8

---

- Test system: Escherichia coli
- ASSAY_REMARKS: Antimicrobial activity against Escherichia coli 25922 QC
- Type: functional
- EXPERIMENTAL_PARAMETERS: ATCC25922
# Lookup of reported MIC keyed by entry

COMPOUND	SYSTEM	MIC
CC(=O)NC[C@H]1CN(c2ccc(N3CCOCC3)c(F)c2)C(=O)O1	Escherichia coli	> 64 µg/mL
COc1ccc2oc3c(O)c4c(c(O)c3c(=O)c2c1O)-c1c(cc2c(c1O)C(=O)N1C(C)(C2)OC(=O)C1(C)CO)CC4 (stereo not given)	Escherichia coli	> 32 µg/mL
COc1ccc2oc3c(c(=O)c2c1O)C(=O)c1c(ccc2cc4c(c(O)c12)C(=O)N1C(C)(C4)OC(=O)C1(C)CO)C3=O (stereo not given)	Escherichia coli	> 64 µg/mL
CCCCCCCCCC(=O)N[C@@H](Cc1c[nH]c2ccccc12)C(=O)N[C@H](CC(N)=O)C(=O)N[C@@H](CC(=O)O)C(=O)N[C@@H]1C(=O)NCC(=O)N[C@@H](CCCN)C(=O)N[C@@H](CC(=O)O)C(=O)N[C@H](C)C(=O)N[C@@H](CC(=O)O)C(=O)NCC(=O)N[C@H](CO)C(=O)N[C@@H]([C@H](C)CC(=O)O)C(=O)N[C@@H](CC(=O)c2ccccc2N)C(=O)O[C@@H]1C	Escherichia coli	> 64 µg/mL
C[C@@H](O)[C@H]1C(=O)N2C(C(=O)O)=C(S[C@@H]3CN[C@H](C(=O)N(C)C)C3)[C@H](C)[C@H]12	Escherichia coli	0.03 µg/mL

Taken from ChEMBL document CHEMBL1151720.
